Provenance of the data: patent US8420626B2

assay: Cytotoxicity (XTT assay); assay type: cell-based; conditions: half toxic concentration, incubation 4 days at 37° C.
quantity-kind: CC50 at 4 days

INSERT INTO results (compound, data_value) VALUES
  ('Brc1ccc(C(c2ccc(CN3CCCNCCNCCCNCC3)cc2)c2ccc(CN3CCCNCCNCCCNCC3)cc2)cc1 [Example 9, dihydrate]', '65.8 µM'),
  ('Clc1cccc(C(c2ccc(CN3CCCNCCNCCCNCC3)cc2)c2ccc(CN3CCCNCCNCCCNCC3)cc2)c1 [Example 11, dihydrate]', '67.8 µM'),
  ('Brc1ccc(C(c2ccc(CN3CCCNCc4cccc(n4)CNCCC3)cc2)c2ccc(CN3CCCNCc4cccc(n4)CNCCC3)cc2)cc1 [Example 32, dihydrate]', '12.9 µM'),
  ('Cc1ccc(C(c2ccc(CN3CCCNCc4cccc(n4)CNCCC3)cc2)c2ccc(CN3CCCNCc4cccc(n4)CNCCC3)cc2)cc1 [Example 31, dihydrate]', '39.3 µM'),
  ('c1ccc(C(c2ccc(CN3CCCNCCNCCCNCC3)cc2)c2ccc(CN3CCCNCCNCCCNCC3)cc2)cc1 [Example 7, dihydrate]', '101 µM'),
  ('c1ccc(C(c2cccc(CN3CCCNCc4cccc(n4)CNCCC3)c2)c2cccc(CN3CCCNCc4cccc(n4)CNCCC3)c2)cc1 [Example 19, dihydrate]', '14.5 µM'),
  ('c1ccc(C(c2cccc(CN3CCCNCc4cccc(c4)CNCCC3)c2)c2cccc(CN3CCCNCc4cccc(c4)CNCCC3)c2)cc1 [Example 13, dihydrate]', '12.4 µM'),
  ('c1ccc(C(c2cccc(CN3CCCNCCNCCCNCC3)c2)c2cccc(CN3CCCNCCNCCCNCC3)c2)cc1 [Example 1, dihydrate]', '322 µM'),
  ('Fc1ccc(C(c2ccc(CN3CCCNCCNCCCNCC3)cc2)c2ccc(CN3CCCNCCNCCCNCC3)cc2)cc1 [Example 10, dihydrate]', '91.3 µM'),
  ('Clc1cccc(C(c2cccc(CN3CCCNCCNCCCNCC3)c2)c2cccc(CN3CCCNCCNCCCNCC3)c2)c1 [Example 5, dihydrate]', '162 µM'),
  ('c1ccc(C(c2cccc(CN3CCCNCCNCCCNCC3)c2)c2cccc(CN3CCCNCCNCCCNCC3)c2)nc1 [Example 6, dihydrate]', '377 µM'),
  ('Fc1ccc(C(c2cccc(CN3CCCNCCNCCCNCC3)c2)c2cccc(CN3CCCNCCNCCCNCC3)c2)cc1 [Example 4, dihydrate]', '367 µM'),
  ('c1ccc(C(c2ccc(CN3CCCNCc4cccc(c4)CNCCC3)cc2)c2ccc(CN3CCCNCc4cccc(c4)CNCCC3)cc2)cc1 [Example 25, dihydrate]', '32.5 µM');

---

IC50 values for the molecules below.
tested on: HIV-1; assay: Anti-HIV activity: inhibition of cell pathological effect (CPE); type: cell-based; conditions: Human immunodeficiency virus 1; inhibition of cell pathological effect of HIV-1
quantity-kind: IC50 (µM)

INSERT INTO results (molecule, target_entity, data_value) VALUES
  ('c1ccc(C(c2cccc(CN3CCCNCc4cccc(n4)CNCCC3)c2)c2cccc(CN3CCCNCc4cccc(n4)CNCCC3)c2)cc1 [Example 19, dihydrate]', 'HIV-1', 0.79),
  ('c1ccc(C(c2cccc(CN3CCCNCCNCCCNCC3)c2)c2cccc(CN3CCCNCCNCCCNCC3)c2)cc1 [Example 1, dihydrate]', 'HIV-1', 0.41),
  ('c1ccc(C(c2ccc(CN3CCCNCCNCCCNCC3)cc2)c2ccc(CN3CCCNCCNCCCNCC3)cc2)cc1 [Example 7, dihydrate]', 'HIV-1', 2.42),
  ('Cc1ccc(C(c2ccc(CN3CCCNCc4cccc(n4)CNCCC3)cc2)c2ccc(CN3CCCNCc4cccc(n4)CNCCC3)cc2)cc1 [Example 31, dihydrate]', 'HIV-1', 1.07);
